# Tested target: Heat shock factor protein 1 (Homo sapiens)
# Experiment summary: ATG_HSE_CIS: Attagene CIS-FACTORIAL HepG2 Assay for human Heat Shock Transcription Factor 1 (HSE) (AID 2282953)
# Experimental conditions: HepG2 HSE cis-reporter, Attagene RNA transcription; actives raise or lower the signal
The source made the active and inactive calls. Rule for the calls: active = hit-call score of the fitted dose curve at least 0.9, where 1 is the maximum; inactive = score below 0.9.
Answer with one of the outcomes active, inactive

Field: example entries. Status: answers known.
CC(=O)N(C)C = inactive
C=CC(O)CCCCC (stereo unspecified) = inactive
CC1=CCC(=C(C)C)CC1 = inactive
CCCCCCCCCCCCOCCOS(=O)(=O)O = inactive
CC(=O)Nc1cc(S(=O)(=O)O)cc2cc(S(=O)(=O)O)c(N=Nc3ccccc3)c(O)c12 = inactive
c1ccc2scnc2c1 = inactive
CC(C)(CO)CO = inactive
CC(C)OB(OC(C)C)OC(C)C = inactive

Dear colleague, could you share the recorded outcome for `COc1ccccc1O` when you have a moment?
inactive

Dear colleague, could you share the recorded outcome for `CCCCCCCCCO` when you have a moment?
inactive

Dear colleague, could you share the recorded outcome for `CCC(C)(C)c1cc(O)c(C(C)(C)CC)cc1O` when you have a moment?
active

Dear colleague, could you share the recorded outcome for `c1ccc(Cc2ccccc2)cc1` when you have a moment?
inactive

Dear colleague, could you share the recorded outcome for `O=C1CCCCCCCCCCCC(=O)OCCO1` when you have a moment?
inactive

Dear colleague, could you share the recorded outcome for `O=[N+]([O-])c1cc(N(CCO)CCO)ccc1NCCO` when you have a moment?
inactive

Dear colleague, could you share the recorded outcome for C=C(C)CCCC(C)CCO (stereo unspecified) when you have a moment?
inactive

Dear colleague, could you share the recorded outcome for `Cc1cccc(O)c1` when you have a moment?
inactive

* * *

# Experiment summary: BSK_4H_Eotaxin3: BioMAP Diversity Plus: 4H Assay for Eotaxin 3 Biomarker Activity (AID 2283000);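 note: CCL26 protein level quantified by ELISA in parallel with SRB cytotoxicity check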
# Experimental conditions: primary human endothelial cells (HUVEC); actives raise or lower the signal
Calls of active or inactive are those of the source. How the source made its calls: active means hit-call score of the fitted dose curve at least 0.9, where 1 is the maximum; inactive means score below 0.9.
Reported endpoint: outcome

CC1(C)[C@H](C=C(Cl)Cl)[C@H]1C(=O)OCc1cccc(Oc2ccccc2)c1 = inactive
C#C[C@]1(O)CC[C@H]2[C@@H]3CCc4cc(O)ccc4[C@H]3CC[C@@]21C = inactive
CC(C)(C)c1cccc(O)c1 = inactive

* * *

# Read-out: E-selectin (Homo sapiens)
# Experiment summary: BSK_SAg_Eselectin: BioMAP Diversity Plus: SAg Assay for Eselectin Biomarker Activity (AID 2283091)
# Experimental conditions: primary human HUVEC with PBMC; actives raise or lower the signal
Active and inactive are the calls of the source. How the source made its calls: active means hit-call score of the fitted dose curve at least 0.9, where 1 is the maximum; inactive means score below 0.9.
Reported endpoint: AC50

CCCO[Si](OCCC)(OCCC)OCCC = inactive
OCCN1CCOCC1 = inactive
CC(C)CCCC(C)(C)O = inactive
C=C1CC/C=C(\C)CC[C@@H]2[C@@H]1CC2(C)C = 20 µM (active)
CC(C)(CO)CO = inactive

Supply reported AC50 belonging to this molecule: CC(C)Cc1ccc(C(C)C(=O)O)cc1 (stereo not drawn)
inactive

* * *

# Experiment summary: ATG_NFI_CIS: Attagene CIS-FACTORIAL HepG2 Assay for human Nuclear Factor I (NFI) (AID 2282989)
# Experimental conditions: HepG2 cis-regulatory reporter, NFI response element transcription; actives raise or lower the signal
Calls of active or inactive are those of the source. How the source made its calls: active means hit-call score of the fitted dose curve at least 0.9, where 1 is the maximum; inactive means score below 0.9.
Reported endpoint: AC50

CCCCOCCOCCO = inactive
COc1cc(OC)c2ccc(=O)oc2c1 = inactive
CC(=O)Nc1cc(S(=O)(=O)O)cc2cc(S(=O)(=O)O)c(N=Nc3ccccc3)c(O)c12 = inactive
N#CCCCC(C#N)CCC#N (stereo not given) = inactive
CC1(C)[C@H](C=C(Cl)Cl)[C@H]1C(=O)OCc1cccc(Oc2ccccc2)c1 = inactive

Supply reported AC50 belonging to this compound: `CCCO`
inactive

Supply reported AC50 belonging to this compound: `CN1CCc2cccc3c2[C@H]1Cc1ccc(O)c(O)c1-3`
inactive

Supply reported AC50 belonging to this compound: `CN(C)C`
inactive

Supply reported AC50 belonging to this compound: `O=C(OCc1ccccc1)c1ccccc1O`
178 µM (active)

Supply reported AC50 belonging to this compound: `O=C(O)c1cc2ccccc2cc1O`
inactive

Supply reported AC50 belonging to this compound: CCCC1CCOC(C)S1 (stereo not given)
inactive

Supply reported AC50 belonging to this compound: `CCCCCCCCCCCCN1CCOCC1`
inactive

Supply reported AC50 belonging to this compound: CCCCOCC(C)OCC(C)O (stereo not given)
inactive

Supply reported AC50 belonging to this compound: `CCOC(=O)COC(=O)c1ccccc1C(=O)OCC`
inactive

Supply reported AC50 belonging to this compound: `c1ccc(OCCOc2ccccc2)cc1`
inactive

* * *

# Tested target: Nuclear receptor subfamily 4 group A member 2 (Homo sapiens) (UniProt P43354)
# Sequence (P43354 whole entry, looked up): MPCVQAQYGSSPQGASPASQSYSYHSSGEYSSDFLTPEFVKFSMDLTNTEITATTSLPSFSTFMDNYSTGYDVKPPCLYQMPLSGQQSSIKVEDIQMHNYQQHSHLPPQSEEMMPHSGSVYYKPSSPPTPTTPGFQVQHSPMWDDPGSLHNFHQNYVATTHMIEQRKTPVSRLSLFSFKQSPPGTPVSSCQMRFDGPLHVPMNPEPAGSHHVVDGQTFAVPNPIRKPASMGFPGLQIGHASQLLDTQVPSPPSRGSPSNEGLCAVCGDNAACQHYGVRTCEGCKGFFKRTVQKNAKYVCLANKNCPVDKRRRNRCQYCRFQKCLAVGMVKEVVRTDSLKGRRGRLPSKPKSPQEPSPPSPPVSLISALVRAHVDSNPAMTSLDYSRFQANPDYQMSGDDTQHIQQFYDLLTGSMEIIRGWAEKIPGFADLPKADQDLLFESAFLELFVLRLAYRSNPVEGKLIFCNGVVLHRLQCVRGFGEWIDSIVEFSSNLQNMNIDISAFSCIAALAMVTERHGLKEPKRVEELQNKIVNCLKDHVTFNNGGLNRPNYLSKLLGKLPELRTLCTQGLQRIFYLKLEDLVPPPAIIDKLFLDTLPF
# Experiment summary: ATG_NURR1_TRANS: Attagene TRANS-FACTORIAL HepG2 Assay for human Nuclear Receptor Related Protein 1 (NURR1) (AID 2282985)
# Experimental conditions: HepG2 Attagene TRANS reporter, mRNA readout
Records with an inconclusive call do not appear. The source made the active and inactive calls. How the source made its calls: active means hit-call score of the fitted dose curve at least 0.9, where 1 is the maximum; inconclusive means response in the unintended direction; inactive means score below 0.9.
Answer with one of the outcomes active, inactive

CCC(=O)OC(C)(C)C1CC=C(C)CC1 (centres undefined) = inactive
O=C(O)CS = inactive
CC/C=C\CCOC(C)OCC (centres undefined) = inactive
CC/C(=C(\c1ccccc1)c1ccc(OCCN(C)C)cc1)c1ccccc1 = inactive
O=C(c1ccc(OCCN2CCCCC2)cc1)c1c(-c2ccc(O)cc2)sc2cc(O)ccc12 = inactive
CC(=O)Oc1c(C)c(C)c2c(c1C)CC[C@@](C)(CCC[C@H](C)CCC[C@H](C)CCCC(C)C)O2 = inactive
CC/C=C\C#N = inactive
C=COCC1CCC(COC=C)CC1 (centres undefined) = inactive
ClCCOCCOCCCl = inactive
CCCCCCOC(C)=O = inactive

Dear colleague, could you share the recorded outcome for `O=S1(=O)CC(Cl)(Cl)C(Cl)(Cl)C1` when you have a moment?
inactive

Dear colleague, could you share the recorded outcome for C=CC(C)(CCC=C(C)C)OC(=O)CC (centres undefined) when you have a moment?
inactive

Dear colleague, could you share the recorded outcome for `CCC=C(C)C=O` when you have a moment?
inactive

Dear colleague, could you share the recorded outcome for `CC1=CCC(C(C)C)=CC1` when you have a moment?
inactive

Dear colleague, could you share the recorded outcome for `CCCCCCCCOC(C)=O` when you have a moment?
inactive

Dear colleague, could you share the recorded outcome for `CC(=O)OC/C=C(C)/C=C/C=C(C)/C=C/C1=C(C)CCCC1(C)C` when you have a moment?
inactive

Dear colleague, could you share the recorded outcome for `CCCCOCCOC(=O)c1ccccc1C(=O)OCCOCCCC` when you have a moment?
active

Dear colleague, could you share the recorded outcome for N#CCCCC(C#N)CCC#N (centres undefined) when you have a moment?
inactive

Dear colleague, could you share the recorded outcome for `[Cu+]` when you have a moment?
inactive

* * *

# Experiment summary: ATG_PXRE_CIS: Attagene CIS-FACTORIAL HepG2 Assay for human Pregnane X Receptor Element (PXRE) (AID 2282957)
# Experimental conditions: HepG2 Attagene CIS-FACTORIAL PXRE reporter, mRNA; actives raise or lower the signal
# Procedure: ATG_CIS is a cell-based, multiplexed-readout assay that uses HepG2, a human liver cell line, with measurements taken at 24 hours after chemical dosing in a 24-well plate.ATG_PXRE_CIS is one of 52 assay component(s) measured or calculated from the ATG_CIS assay. […] This assay endpoint, ATG_PXRE_CIS, was analyzed with bidirectional fitting relative to DMSO as the negative control and baseline of activity. […]
Activity calls are given as the source filed them. The calls were made as follows: active = hit-call score of the fitted dose curve at least 0.9, where 1 is the maximum; inactive = score below 0.9.
Answer with one of the outcomes 1 (active), -1 (inactive)

Field: example entries. Status: answers known.
COc1ccccc1O = 1
CCCCCCCCOC(=O)c1ccc(O)cc1 = 1

Dear colleague, could you share the recorded outcome for CC(C)(C)C1CCC(O)CC1 (stereo not given) when you have a moment?
-1

Dear colleague, could you share the recorded outcome for CCC(C)(CCCC(C)C)OC(C)=O (stereo not given) when you have a moment?
-1

* * *

# Experiment summary: Tanguay_ZF_120hpf_PFIN_legacy: (Legacy) Oregon State University Tanguay Lab 120 Hour Post-fertilization zebrafish Assay for Pectoral Fin Malformation (AID 2283648);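 note: each larva judged yes or no for fin defect by brightfield with dead larvae skipped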
Inconclusive results are not listed. Active and inactive are the calls of the source. Rule for the calls: active = hit-call score of the fitted dose curve at least 0.9, where 1 is the maximum; inconclusive = response in the unintended direction; inactive = score below 0.9.
Reported endpoint: outcome

These recorded examples may help you get a feel for the data.
C=C(C)C(N)=O = inactive
CC/C(=C(\c1ccccc1)c1ccc(OCCN(C)C)cc1)c1ccccc1 = inactive
O=C(c1ccc(OCCN2CCCCC2)cc1)c1c(-c2ccc(O)cc2)sc2cc(O)ccc12 = inactive
CCCCOCCOCCO = inactive
C#C[C@]1(O)CC[C@H]2[C@@H]3CCc4cc(O)ccc4[C@H]3CC[C@@]21C = inactive

From here, focus on the item given below.
Supply reported outcome belonging to this molecule: `COC(=O)c1ccc(C(=O)OC)cc1`
inactive
